- assay.info: soluble on expression in E. coli; label from the status in PepcDB or PDB records

- ordered.residues: "VGKMTPDFLGSLSTTLSWKNLSLHIATDMRFGGLVASYSNLYGTQAGWIKSSLKWRDPEHGGLSWTSQYGDSKGISYGDGVIPDGVFKNGTFATLVDGTKMDVSGMSYKQLVAEGKLEPTHAGTYHVNRAAWGQNTIFDTWVHELNYIALREITLSYRFPKSVASKFGAQGLGLSFSARNLGYLYNSLPNHLNPESVRGNTASEFRIRGYEPYTANYMMTINVDF"
  soluble on expression in E. coli: "not soluble"
- ordered.residues: "MNRRRKLLIPLLFCGAMLTACDDKSAENAAAMTPEVGVVTLSPGSVNVLSELPGRTVPYEVAEIRPQVGGIIIKRNFIEGDKVNQGDSLYQIDPAPLQAELNSAKGSLAKALSTASNARITFNRQASLLKTNYVSRQDYDTARTQLNEAEANVTVAKAAVEQATINLQYANVTSPITGVSGKSSVTVGALVTANQADSLVTVQRLDPIYVDLTQSVQDFLRMKEEVASGQIKQVQGSTPVQLNLENGKRYSQTGTLKFSDPTVDETTGSVTLRAIFPNPNGDLLPGMYVTALVDEGSRQNVLLVPQEGVTHNAQGKATALILDKDDVVQLREIEASKAIGDQWVVTSGLQAGDRVIVSGLQRIRPGIKARAISSSQENASTESKQ"
  soluble on expression in E. coli: "not soluble"
- ordered.residues: "MISSWEQKNNCVMPEDVRNFYLMTNGFHMTWSVKLDDHIIPLGSMVINGISKLTQLIQSSVYSLPNAPTLADLEDDSQEGNEDHQLEKPHFDCRSAIFELDSCGGNGKVCLVYKNGKPGLAHDTEIWFLDRALYWHFLTDTFTAYYRLLITHLGLPQWQYAFTSYGISPQAKQWFSMYKPITYNTSLLTEEPDTFVNKLDPSKVFKSKNKILIPKKKGPVQPVSGQKGPGPLAPPTSKPSAGCGNPVRK"
  soluble on expression in E. coli: "not soluble"

* * *

- assay.info: soluble on expression in E. coli; label from the status in PepcDB or PDB records
readout.label: soluble on expression in E. coli

# annotated cases, reported soluble on expression in E. coli shown
- ordered.residues: "MPEVKTEKPHLLDMGKPQLRMVDLNLLTVFDAVMQEQNITRAAHTLGMSQPAVSNAVARLKVMFNDELFVRYGRGIQPTARAFQLFGSVRQALQLVQNELPGSGFEPTSSERVFNLCVCSPLDNILTSQIYNRVEKIAPNIHVVFKASLNQNTEHQLRYQETEFVISYEEFRRPEFTSVPLFKDEMVLVASRKHPRISGPLLEGDVYNEQHAVVSLDRYASFSQPWYDTPDKQSSVAYQGMALISVLNVVSQTHLVAIAPRWLAEEFAESLDLQILPLPLKLNSRTCYLSWHEAAGRDKGHQWMEDLLVSVCKR"
  soluble on expression in E. coli: "not soluble"
- ordered.residues: "MFKRLMMVALLVIAPLSAATAADQTNPYKLMDEAAQKTFDRLKNEQPQIRANPDYLRTIVDQELLPYVQVKYAGALVLGQYYKSATPAQRDAYFAAFREYLKQAYGQALAMYHGQTYQIAPEQPLGDKTIVPIRVTIIDPNGRPPVRLDFQWRKNSQTGNWQAYDMIAEGVSMITTKQNEWGTLLRTKGIDGLTAQLKSISQQKITLEEKK"
  soluble on expression in E. coli: "not soluble"
- ordered.residues: "MGSDKIHHHHHHSFSLPGYLFGRCPDYSITYDKNDAQEQKDVYICDGNKSVVRIDSYKWNSSSSDWVYDGKTVMENDNQGRTLVAISYSAADVAGEKTEYTYTGNGYEKFSVTSSSFEGGAWKAEAKVDIEATFNKDKYPVSILMTGTAEGETFKMKMEWSYDKNVTKTSSSIDFGGSWMLMSESKTEIVDAGNPMISKNYQKMYFPAETSWEYSGKTHDYFNGTTSIAPVVEENELKLHIYGDVLEVQGTESGISIYAITGGKMAESKSNRIDISRLPAGIYLLNTARGSIKFIHK"
  soluble on expression in E. coli: "not soluble"
- ordered.residues: "MATASHNIDDILQLKDDTGVITVTADNYPLLSRGVPGYFNILYITMRGTNSNGMSCQLCHDFEKTYHAVADVIRSQAPQSLNLFFTVDVNEVPQLVKDLKLQNVPHLVVYPPAESNKQSQFEWKTSPFYQYSLVPENAENTLQFGDFLAKILNISITVPQAFNVQEEFHHHHHHHHHH"
  soluble on expression in E. coli: "soluble"
- ordered.residues: "MSLIPIDYLRASRKGREVRPRYLNDDKIASEVINMAKSAKTLGEFRNAVELISSDKKLVRGLAHVLEQLIEIEKIDSKLVTRTRLEVFKAASALGYPLTEEERERVFQTVAARLKMGVNEVKALFLKAYEENRLIVKAPDIQPKQLVEMYNLALIQALLFKSLYVKALLPNAPALLKGLIRAVKGLGLMYIVEINGGQLEFRFDGPVSALRQTERYGTRLAKLVPYITSAEKWEIEAQVKLGERIYVFKESGRTAPPLPKTPPHAEQFDSLVEQEFYKQVSKICHVEREPEALVVDGRVYIPDFKIGDLYVEIVGFWTPDYLKRKYEKITKVGKPLLVLVSEELAMATWKQLMPNVVVFKDRPRLSDVFKYIKPYCVNHREGHHHHHH"
  soluble on expression in E. coli: "not soluble"
- ordered.residues: "MHHHHHHSSGVDLGTENLYFQSNAMNDPKVIVALDYDNLADALAFVDKIDPSTCRLKVGKEMFTLFGPDFVRELHKRGFSVFLDLKFHDIPNTCSKAVKAAAELGVWMVNVHASGGERMMAASREILEPYGKERPLLIGVTVLTSMESADLQGIGILSAPQDHVLRLATLTKNAGLDGVVCSAQEASLLKQHLGREFKLVTPGIRPAGSEQGDQRRIMTPAQAIASGSDYLVIGRPITQAAHPEVVLEEINSSLV"
  soluble on expression in E. coli: "soluble"

Please report the recorded soluble on expression in E. coli for "AHHHHHHGSKRRAVVLFSGGLDSTACLYWAKKQYDEVIMLTVNYGSNEERVTNKVAEYFSKELDVRLKIVKLDFLKEFSEIRGSSLVGGEVPRVTAEELEDIEKASETARSVWIPARNLVLISVAASLLDALGGGDIIVGFNAEEATTFPDNSREFVEKLNEALRFATLNPVKVVAPLIDLDKRGIAKLLKELNAKYEYSNSCYNPKGFTEDGRPIHCGECESCVRRHKGLIEGIGEDKTVYAITPRI" .
not soluble

Data provenance: the DeepSol protein solubility set
